Test system: LOX IMVI melanoma
assay_notes: NCI tumour cell line growth inhibition, 48 h
# binarize TGI: threshold 30 µM inclusive, high side True, low side False

[[record]]
compound = "COc1oc(C(=O)NC2CCCCC2)c(-c2ccc(Cl)cc2)c1S(=O)(=O)c1ccccc1"
category = "False"

[[record]]
compound = "COc1cc(-c2nc3nc(N4CCN(C)CC4)ccc3[nH]2)c(OC)c2[nH]c(CO)nc12"
category = "True"

[[record]]
compound = "Cc1ccccc1NC(=O)c1cc2cc(N=Nc3ccccc3C(=O)O)ccc2oc1=O"
category = "True"


Reported TGI reaches at least 30 µM for CC(C)(C)OC(=O)NC(Cc1ccc(OCc2ccccc2)cc1)C(=O)NC(COCc1ccccc1)C(=O)Oc1c(Cl)c(Cl)c(Cl)c(Cl)c1Cl (stereo not given) ?
True

Would you say O=C(Nn1cc(F)c(=O)[nH]c1=O)C12CC3CC(CC(C3)C1)C2 shows TGI at minimum 30 µM?
False

Evaluate Cc1cccc2c1CC1(Cc3ccccc3C1=O)C2=O (stereo not given) : TGI at minimum 30 µM?
True

Kindly determine if TGI recorded for O=C(CNC(=O)c1ccccc1)Oc1c(Cl)c(Cl)c(Cl)c(Cl)c1Cl is above or exactly 30 µM.
True

Determine whether this compound has TGI no lower than 30 µM: Cc1ccc(C(=Nc2ccccc2)N=P(c2ccccc2)(c2ccccc2)c2ccccc2)cc1
False

Does the compound O=C1N[C@H](Cc2cnc[nH]2)C(=O)N2CCC[C@@H]12 have recorded TGI that is 30 µM or more?
True

Assess whether reported TGI for O=C(NCc1ccccc1)c1cc2ccccc2oc1=Nc1ccccc1F sits at 30 µM or higher.
True
